Each recorded value in this set is attributed to ChEMBL document CHEMBL5154808.

Measured half-life at 10000 µM, listed per entry for reference.
- experimentNotes: Stability in mouse serum assessed as half life at 10 mM measured upto 360 mins by RP-HPLC analysis
- Format: ADME, cell-free
Answer format: value, then unit.

Field half-life at 10000 µM (entry `H-KWKWKRRRFKWKWK-NH2` ) reads 2.68 h

# substance `H-RIRIRRRRFRIRIR-NH2` ; its half-life at 10000 µM = 7.7 h

###

- experimentNotes: Acute toxicity in ip dosed Kunming mouse assessed as lethal dose
- Format: organism-based
- runConditions: in vivo
// reported LD50 per item
Report the value in mg/kg with no unit label.

H-KWKWKRRRFKWKWK-NH2
62.2

Item: `H-RIRIRRRRFRIRIR-NH2` | LD50: 77.1

###

Below, each entry is listed alongside its reported MIC.
- Tested on: Klebsiella pneumoniae
- experimentNotes: Antimicrobial activity against Klebsiella pneumoniae ATCC 700603 assessed as reduction of bacterial growth incubated for 18 hrs by CLSI protocol based broth microdilution method
- Assay type: functional
Where a SMILES comes first, the peptide text is derived from it. Bridges are numbered along the chain shown (N, C = ends). [ ]: non-standard residue; d: D form. The star is where a group is joined. X1 = CC[C@H](C)CCCCC(=O)*; Dab = NCC[C@H](N)C(=O)O
I only need the number, in µM, no unit after it.

Sample answers from the record:
CC[C@H](C)[C@H](N)C(=O)N[C@@H](CCCNC(=N)N)C(=O)N[C@H](C(=O)N[C@@H](CCCNC(=N)N)C(=O)N[C@@H](CS)C(=O)N[C@@H](CCCNC(=N)N)C(=O)N[C@@H](CCCNC(=N)N)C(=O)N[C@@H](CCCNC(=N)N)C(=O)N[C@@H](Cc1ccccc1)C(=O)N[C@@H](CS)C(=O)N[C@@H](CCCNC(=N)N)C(=O)N[C@H](C(=O)N[C@@H](CCCNC(=N)N)C(=O)N[C@H](C(N)=O)[C@@H](C)CC)[C@@H](C)CC)[C@@H](C)CC (H-IRIRCRRRFCRIRI-NH2)
8
CC(C)C[C@H](NC(=O)[C@H](CCCNC(=N)N)NC(=O)CNC(=O)CNC(=O)[C@@H](N)CCCNC(=N)N)C(=O)N[C@@H](CS)C(=O)N[C@@H](Cc1ccc(O)cc1)C(=O)N[C@@H](CS)C(=O)N[C@@H](CCCNC(=N)N)C(=O)N[C@@H](CCCNC(=N)N)C(=O)N[C@@H](CCCNC(=N)N)C(=O)N[C@@H](Cc1ccccc1)C(=O)N[C@@H](CS)C(=O)N[C@H](C(=O)N[C@@H](CS)C(=O)N[C@H](C(=O)NCC(=O)N[C@@H](CCCNC(=N)N)C(N)=O)C(C)C)C(C)C (H-RGGRLCYCRRRFCVCVGR-NH2)
8
NC[C@H]1O[C@H](O[C@H]2[C@H](O)[C@@H](O[C@H]3O[C@H](CO)[C@@H](O)[C@H](N)[C@H]3O)[C@H](N)C[C@@H]2N)[C@H](O)[C@@H](O)[C@@H]1O
64
CO[C@H]1/C=C/O[C@@]2(C)Oc3c(C)c(O)c4c(O)c(c(/C=N/N5CCN(C)CC5)c(O)c4c3C2=O)NC(=O)/C(C)=C\C=C\[C@H](C)[C@H](O)[C@@H](C)[C@@H](O)[C@@H](C)[C@H](OC(C)=O)[C@@H]1C
32

Sure, the documented MIC for CC[C@H](C)CCCCC(=O)N[C@@H](CCN)C(=O)N[C@H](C(=O)N[C@@H](CCN)C(=O)N[C@H]1CCNC(=O)[C@H]([C@@H](C)O)NC(=O)[C@H](CCN)NC(=O)[C@H](CCN)NC(=O)[C@H](CC(C)C)NC(=O)[C@@H](Cc2ccccc2)NC(=O)[C@H](CCN)NC1=O)[C@@H](C)O (X1-[Dab]T[Dab][Dab][Dab][dF]L[Dab][Dab]T; lactam 4-C) is 4

###

- Tested on: Enterococcus faecalis
- experimentNotes: Antimicrobial activity against Enterococcus faecalis ATCC 29212 assessed as reduction of bacterial growth incubated for 18 hrs by CLSI protocol based broth microdilution method
- Type: functional
log10(MIC) reference
Units before log transform: µM; reported quantity: MIC; transform: log10.

Sample answers from the record:
H-IRIRRRRFRIRI-NH2
1.20
H-WRWRRRRFRWRW-NH2
0.90
H-RIRIRRRRFRIRIR-NH2
0.90
H-KWKWKRRRFKWKWK-NH2
1.20
H-WKWKWKRRRFKWKWKW-NH2
0.90

The reported log10(MIC) of the substance `H-RIRIRRRFIRIR-NH2` was 1.51

Summary for this substance, `H-LKLKRRRFKLKL-NH2` : log10(MIC) is 2.11

Lab note: measured log10(MIC) of `H-IRIRIRRRRFRIRIRI-NH2` was 0.60

// sample `H-WKWKRRRFKWKW-NH2` , its log10(MIC) was 1.20

// recorded log10(MIC) for `H-IKIKRRRFKIKI-NH2` : 1.81

Noted for `H-FRFRRRRFRFRF-NH2` : its log10(MIC) reads 1.20

Recorded result, `H-FRFRFRRRRFRFRFRF-NH2` , log10(MIC): 0.90

###

- System: Staphylococcus aureus
- experimentNotes: Antimicrobial activity against Staphylococcus aureus ATCC 25923 assessed as reduction of bacterial growth incubated for 18 hrs by CLSI protocol based broth microdilution method
- Assay type: functional
Where a SMILES comes first, the peptide text is derived from it. Bridges are numbered along the chain shown (N, C = ends). [ ]: non-standard residue; d: D form. The star is where a group is joined. X1 = CC[C@H](C)CCCCC(=O)*; Dab = NCC[C@H](N)C(=O)O
readout: MIC

C[C@@H](O)[C@H]1C(=O)N2C(C(=O)O)=C(S[C@@H]3CN[C@H](C(=O)N(C)C)C3)[C@H](C)[C@H]12
< 1 µM

CC(C)C[C@H](NC(=O)[C@H](CCCNC(=N)N)NC(=O)CNC(=O)CNC(=O)[C@@H](N)CCCNC(=N)N)C(=O)N[C@@H](CS)C(=O)N[C@@H](Cc1ccc(O)cc1)C(=O)N[C@@H](CS)C(=O)N[C@@H](CCCNC(=N)N)C(=O)N[C@@H](CCCNC(=N)N)C(=O)N[C@@H](CCCNC(=N)N)C(=O)N[C@@H](Cc1ccccc1)C(=O)N[C@@H](CS)C(=O)N[C@H](C(=O)N[C@@H](CS)C(=O)N[C@H](C(=O)NCC(=O)N[C@@H](CCCNC(=N)N)C(N)=O)C(C)C)C(C)C (H-RGGRLCYCRRRFCVCVGR-NH2) yielded MIC of 8 µM

Entry `NC[C@H]1O[C@H](O[C@H]2[C@H](O)[C@@H](O[C@H]3O[C@H](CO)[C@@H](O)[C@H](N)[C@H]3O)[C@H](N)C[C@@H]2N)[C@H](O)[C@@H](O)[C@@H]1O` ; MIC = < 1 µM

Lab note: measured MIC of CC[C@H](C)CCCCC(=O)N[C@@H](CCN)C(=O)N[C@H](C(=O)N[C@@H](CCN)C(=O)N[C@H]1CCNC(=O)[C@H]([C@@H](C)O)NC(=O)[C@H](CCN)NC(=O)[C@H](CCN)NC(=O)[C@H](CC(C)C)NC(=O)[C@@H](Cc2ccccc2)NC(=O)[C@H](CCN)NC1=O)[C@@H](C)O (X1-[Dab]T[Dab][Dab][Dab][dF]L[Dab][Dab]T; lactam 4-C) was 16 µM

The compound identified as CC[C@H](C)[C@H](N)C(=O)N[C@@H](CCCNC(=N)N)C(=O)N[C@H](C(=O)N[C@@H](CCCNC(=N)N)C(=O)N[C@@H](CS)C(=O)N[C@@H](CCCNC(=N)N)C(=O)N[C@@H](CCCNC(=N)N)C(=O)N[C@@H](CCCNC(=N)N)C(=O)N[C@@H](Cc1ccccc1)C(=O)N[C@@H](CS)C(=O)N[C@@H](CCCNC(=N)N)C(=O)N[C@H](C(=O)N[C@@H](CCCNC(=N)N)C(=O)N[C@H](C(N)=O)[C@@H](C)CC)[C@@H](C)CC)[C@@H](C)CC (H-IRIRCRRRFCRIRI-NH2) registered its MIC at 8 µM

So, `CO[C@H]1/C=C/O[C@@]2(C)Oc3c(C)c(O)c4c(O)c(c(/C=N/N5CCN(C)CC5)c(O)c4c3C2=O)NC(=O)/C(C)=C\C=C\[C@H](C)[C@H](O)[C@@H](C)[C@@H](O)[C@@H](C)[C@H](OC(C)=O)[C@@H]1C` ? Its MIC was < 1 µM

###

- Tested on: Enterococcus faecalis
- experimentNotes: Antimicrobial activity against Enterococcus faecalis ATCC 29212 assessed as reduction of bacterial growth incubated for 18 hrs by CLSI protocol based broth microdilution method
- Format: functional
Where a SMILES comes first, the peptide text is derived from it.
readout: MIC (µM)
Give your result in µM as a bare value.

Reported MIC for CC[C@H](C)[C@H](N)C(=O)N[C@@H](CCCNC(=N)N)C(=O)N[C@H](C(=O)N[C@@H](CCCNC(=N)N)C(=O)N[C@@H](CS)C(=O)N[C@@H](CCCNC(=N)N)C(=O)N[C@@H](CCCNC(=N)N)C(=O)N[C@@H](CCCNC(=N)N)C(=O)N[C@@H](Cc1ccccc1)C(=O)N[C@@H](CS)C(=O)N[C@@H](CCCNC(=N)N)C(=O)N[C@H](C(=O)N[C@@H](CCCNC(=N)N)C(=O)N[C@H](C(N)=O)[C@@H](C)CC)[C@@H](C)CC)[C@@H](C)CC (H-IRIRCRRRFCRIRI-NH2) was 16

Item: CC(C)C[C@H](NC(=O)[C@H](CCCNC(=N)N)NC(=O)CNC(=O)CNC(=O)[C@@H](N)CCCNC(=N)N)C(=O)N[C@@H](CS)C(=O)N[C@@H](Cc1ccc(O)cc1)C(=O)N[C@@H](CS)C(=O)N[C@@H](CCCNC(=N)N)C(=O)N[C@@H](CCCNC(=N)N)C(=O)N[C@@H](CCCNC(=N)N)C(=O)N[C@@H](Cc1ccccc1)C(=O)N[C@@H](CS)C(=O)N[C@H](C(=O)N[C@@H](CS)C(=O)N[C@H](C(=O)NCC(=O)N[C@@H](CCCNC(=N)N)C(N)=O)C(C)C)C(C)C (H-RGGRLCYCRRRFCVCVGR-NH2) | MIC: 8
